Attribute: growth inhibition
test: NCI Yeast Anticancer Drug Screen. Data for the rad50 strain (AID 155);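 further: 0% = growth of vehicle-only cultures of the same strain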; conditions: S. cerevisiae rad50 strain growth inhibition; at 50.0 µM; hits give high values
About 79,000 compounds went through this panel and 15% of them were active in at least one assay; those are over-represented in the sample as a whole.
Number only, in %; omit the unit.

INSERT INTO results (compound, value) VALUES
  ('CC(=O)NNc1nc(C)c(C(/C=C/c2ccc(Cl)cc2)=N/NC(=S)NN)s1', 34.1),
  ('COC(=O)C1[C@@H](C(=O)OC)C12C=Cc1ccccc1C=C2 (some centres undefined)', -33.2),
  ('OC(c1ccccc1)C(Cc1ccccc1)N1CCCCC1 (centres undefined)', 2.4),
  ('CC(C)(Oc1ccc2c(=O)cc(-c3ccccc3)oc2c1)C(=O)Nc1c(Cl)cccc1Cl', 7.95),
  ('Cc1cccc(Cl)c1NC(=O)Nc1ccc(Cl)cc1C(=O)c1ccccc1', 5.5),
  ('COc1ccc2c3c(ccc2c1)C1C(=O)OC(=O)C1CC3 (centres undefined)', -2.6),
  ('O=C1C(NS(=O)(=O)c2ccccc2)=C(N(Cc2ccccc2)Cc2ccccc2)C(=O)c2ccccc21', 9.1),
  ('O=c1c(O)c(O)c1=O', 1.3);

Let's switch to this compound now.
Looking up O=C(CC1(O)CCCCC1)Nc1ccccc1 , I found its growth inhibition recorded as 1.9
